Test system: VeroE6 cells
readout: CC50

molecule	valueObserved
O=C(Nc1ccc([N+](=O)[O-])cc1Cl)c1cc(Cl)ccc1O [niclosamide ethanolamine]	> 10 µM
